B1: NP_015628.1 (parent)
chain: EQRNSRWNTVLRAVKAKTHHLEP

# Variants of: B1
# protocol-summary: protein stability index of a GFP-peptide fusion (GPS, HEK-293T) (PSI 1-6); higher = more stable;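 also: lentivirally expressed fusion library, cells FACS-sorted into six equal-sized GFP/DsRed ratio bins, PSI computed from sequencing read fractions per bin weighted by bin number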
# experimental-conditions: c terminus: native
Recorded measurements of protein stability index, one per entry
readout: protein stability index

- mutation-annotation: "N4V"
  reported: 2.96
- mutation-annotation: "N8Y"
  reported: 2.61
- mutation-annotation: "H19E"
  reported: 3.75
- mutation-annotation: "W7H"
  reported: 5.21
- mutation-annotation: "W7R"
  reported: 5.19
- mutation-annotation: "L21R"
  reported: 2.08
- mutation-annotation: "L21N"
  reported: 4.59
- mutation-annotation: "R3C"
  reported: 3.3
- mutation-annotation: "N4H"
  reported: 2.48
- mutation-annotation: "R6K"
  reported: 2.67
- mutation-annotation: "S5V"
  reported: 2.43
- mutation-annotation: "N8C"
  reported: 2.01
- mutation-annotation: "N8I"
  reported: 2.6
- mutation-annotation: "T18Q"
  reported: 3.34
- mutation-annotation: "N4K"
  reported: 2.67
- mutation-annotation: "S5H"
  reported: 2.62
- mutation-annotation: "T9P"
  reported: 4.6
- mutation-annotation: "R12V"
  reported: 2.47
- mutation-annotation: "P23K"
  reported: 5.17
- mutation-annotation: "P23N"
  reported: 4.98
- mutation-annotation: "E1A"
  reported: 2.66
- mutation-annotation: "K17N"
  reported: 2.69
- mutation-annotation: "S5Y"
  reported: 2.38
- mutation-annotation: "H20L"
  reported: 3.6
- mutation-annotation: "Q2M"
  reported: 3.12
- mutation-annotation: "E22P"
  reported: 4.21
- mutation-annotation: "H19M"
  reported: 3.37
- mutation-annotation: "A16I"
  reported: 2.73
- mutation-annotation: "A16Y"
  reported: 2.78
- mutation-annotation: "R6N"
  reported: 2.67
- mutation-annotation: "K15Q"
  reported: 3.05
- mutation-annotation: "K17C"
  reported: 2.61
- mutation-annotation: "W7N"
  reported: 4.83
- mutation-annotation: "R6E"
  reported: 3.39
- mutation-annotation: "R3D"
  reported: 3.97
- mutation-annotation: "R12C"
  reported: 2.74
- mutation-annotation: "K15Y"
  reported: 3.25
- mutation-annotation: "A13K"
  reported: 2.87
- mutation-annotation: "K15F"
  reported: 2.9
- mutation-annotation: "P23R"
  reported: 3.9
- mutation-annotation: "V10I"
  reported: 2.92
- mutation-annotation: "A16N"
  reported: 2.35
- mutation-annotation: "K15P"
  reported: 3.14
- mutation-annotation: "Q2G"
  reported: 2.74
- mutation-annotation: "K17W"
  reported: 2.62
- mutation-annotation: "Q2D"
  reported: 3.43
- mutation-annotation: "V14S"
  reported: 3.28
- mutation-annotation: "L11P"
  reported: 5.12
- mutation-annotation: "L21T"
  reported: 4.26
- mutation-annotation: "V10E"
  reported: 3.92
- mutation-annotation: "N4W"
  reported: 2.4
- mutation-annotation: "K17E"
  reported: 2.77
- mutation-annotation: "H20K"
  reported: 4.01
- mutation-annotation: "T18L"
  reported: 3.13
- mutation-annotation: "N8E"
  reported: 1.92
- mutation-annotation: "E22Q"
  reported: 3.28
- mutation-annotation: "L21D"
  reported: 4.04
- mutation-annotation: "H19T"
  reported: 3.74
- mutation-annotation: "K15S"
  reported: 3.26
- mutation-annotation: "E22T"
  reported: 3.23
- mutation-annotation: "K15I"
  reported: 3.1
- mutation-annotation: "L21Q"
  reported: 4.55
- mutation-annotation: "A16D"
  reported: 2.82
- mutation-annotation: "H20A"
  reported: 2.81
- mutation-annotation: "E22C"
  reported: 2.63
- mutation-annotation: "H20T"
  reported: 3.27
- mutation-annotation: "H20G"
  reported: 1.9
- mutation-annotation: "R12E"
  reported: 2.79
- mutation-annotation: "Q2C"
  reported: 2.93
- mutation-annotation: "N8P"
  reported: 3.65
- mutation-annotation: "A13I"
  reported: 2.66
- mutation-annotation: "N4D"
  reported: 3.22
- mutation-annotation: "R6F"
  reported: 3.03
- mutation-annotation: "Q2F"
  reported: 3.02
- mutation-annotation: "V14R"
  reported: 2.96
- mutation-annotation: "P23G"
  reported: 4.74
- mutation-annotation: "K15L"
  reported: 3.07
- mutation-annotation: "S5G"
  reported: 3.32
- mutation-annotation: "R12F"
  reported: 2.41
- mutation-annotation: "V10P"
  reported: 4.13
- mutation-annotation: "L21A"
  reported: 4.09
- mutation-annotation: "K17M"
  reported: 2.91
- mutation-annotation: "R3E"
  reported: 3.33
- mutation-annotation: "R3Q"
  reported: 2.71
- mutation-annotation: "L21F"
  reported: 3.82
- mutation-annotation: "K17R"
  reported: 3.33
- mutation-annotation: "V10Q"
  reported: 3.25
- mutation-annotation: "E22H"
  reported: 3.45
- mutation-annotation: "P23D"
  reported: 4.92
- mutation-annotation: "E1L"
  reported: 2.87
- mutation-annotation: "T18Y"
  reported: 2.84
